experiment: Plasma pharmacokinetics of ALM201 in Phase I patients (validated LC-MS/MS, Phoenix WinNonlin); conditions: human, plasma, sc, 10 mg, Plasma concentration, geometric mean (CV%), 10 mg SC, day 18 cycle 4, 1.5 h after dosing, n = 1; LC-MS/MS
No end group written: not given here.
result.type: level at 1.5 h (ng/mL)

sequence.text: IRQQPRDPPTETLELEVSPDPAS [ALM201]
result.type: level at 1.5 h
observed.result: 193

====

assay: Plasma pharmacokinetics of ALM201 in Phase I patients (validated LC-MS/MS, Phoenix WinNonlin); conditions: human, plasma, sc, 80 mg, Plasma concentration, geometric mean (CV%), 80 mg SC, day 18 cycle 1, 0.5 h after dosing, n = 2; LC-MS/MS
No end group written: not given here.

sequence.text: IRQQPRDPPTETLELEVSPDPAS [ALM201]
level at 0.5 h: 769 ng/mL

====

assay: Plasma pharmacokinetics of ALM201 in Phase I patients (validated LC-MS/MS, Phoenix WinNonlin); conditions: human, plasma, sc, 160 mg, Plasma concentration, geometric mean (CV%), 160 mg SC, day 18 cycle 2, 3.5 h after dosing, n = 1; LC-MS/MS
No end group written: not given here.

sequence.text: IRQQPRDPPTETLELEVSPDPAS [ALM201]
level at 3.5 h, ng/mL: 870

====

experiment: Plasma pharmacokinetics of ALM201 in Phase I patients (validated LC-MS/MS, Phoenix WinNonlin); conditions: human, plasma, sc, 10 mg, AUC0-t, Gmean (CV), 10 mg SC, day 18 cycle 6, n = 1; plasma LC-MS/MS
No end group written: not given here.

sequence.text: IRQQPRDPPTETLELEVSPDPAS [ALM201]
unit.abbreviation: ng·h/mL
AUC(0-t): 1040

====

test: Plasma pharmacokinetics of ALM201 in Phase I patients (validated LC-MS/MS, Phoenix WinNonlin); settings: human, plasma, sc, 200 mg, Cmax, Gmean (CV), 200 mg SC, day 18 cycle 1, n = 3; plasma LC-MS/MS
No end group written: not given here.

sequence.text: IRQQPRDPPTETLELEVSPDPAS [ALM201]
Cmax / ng/mL: 1670

====

assay: Plasma pharmacokinetics of ALM201 in Phase I patients (validated LC-MS/MS, Phoenix WinNonlin); conditions: human, plasma, sc, 200 mg, Plasma concentration, geometric mean (CV%), 200 mg SC, day 1 cycle 1, 2 h after dosing, n = 4; LC-MS/MS
No end group written: not given here.
result.type: level at 2 h (ng/mL)

sequence.text: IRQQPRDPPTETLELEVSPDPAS [ALM201]
result.type: level at 2 h
unit.abbreviation: ng/mL
observed.result: 1370

====

test: Plasma pharmacokinetics of ALM201 in Phase I patients (validated LC-MS/MS, Phoenix WinNonlin); conditions: human, plasma, sc, 200 mg, Cmax, Gmean (CV), 200 mg SC, day 18 cycle 2, n = 2, CV not calculated; plasma LC-MS/MS
No end group written: not given here.

sequence.text: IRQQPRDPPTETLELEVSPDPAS [ALM201]
Cmax (ng/mL): 1890

====

assay: Plasma pharmacokinetics of ALM201 in Phase I patients (validated LC-MS/MS, Phoenix WinNonlin); conditions: human, plasma, sc, 10 mg, Plasma concentration, geometric mean (CV%), 10 mg SC, day 1 cycle 1, 1.5 h after dosing, n = 1; LC-MS/MS
No end group written: not given here.
result.type: level at 1.5 h (ng/mL)

sequence.text: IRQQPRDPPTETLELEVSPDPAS [ALM201]
observed.result: 200

====

experiment: Plasma pharmacokinetics of ALM201 in Phase I patients (validated LC-MS/MS, Phoenix WinNonlin); settings: human, plasma, sc, 100 mg, Plasma concentration, geometric mean (CV%), 100 mg SC, day 1 cycle 1, 5 h after dosing, n = 4, NQ value substituted with 100 ng/mL; LC-MS/MS
No end group written: not given here.
result.type: level at 5 h

sequence.text: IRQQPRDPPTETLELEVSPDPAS [ALM201]
result.type: level at 5 h
observed.result: 664 ng/mL

====

experiment: Plasma pharmacokinetics of ALM201 in Phase I patients (validated LC-MS/MS, Phoenix WinNonlin); conditions: human, plasma, sc, 300 mg, Plasma concentration, geometric mean (CV%), 300 mg SC, day 3 cycle 1, 7 h after dosing, n = 3; LC-MS/MS
No end group written: not given here.
result.type: level at 7 h (ng/mL)

sequence.text: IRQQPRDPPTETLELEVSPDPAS [ALM201]
observed.result: 852

====

assay: Plasma pharmacokinetics of ALM201 in Phase I patients (validated LC-MS/MS, Phoenix WinNonlin); conditions: human, plasma, sc, 100 mg, AUC0-t, Gmean (CV), 100 mg SC, day 3 cycle 1, n = 4; plasma LC-MS/MS
No end group written: not given here.

sequence.text: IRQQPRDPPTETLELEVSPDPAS [ALM201]
unit.abbreviation: ng·h/mL
AUC(0-t): 8870

====

test: Plasma pharmacokinetics of ALM201 in Phase I patients (validated LC-MS/MS, Phoenix WinNonlin); conditions: human, plasma, sc, 40 mg, Plasma concentration, geometric mean (CV%), 40 mg SC, day 1 cycle 1, 4 h after dosing, n = 1; LC-MS/MS
No end group written: not given here.
result.type: level at 4 h (ng/mL)

sequence.text: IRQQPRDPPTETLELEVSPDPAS [ALM201]
observed.result: 223

====

assay: Plasma pharmacokinetics of ALM201 in Phase I patients (validated LC-MS/MS, Phoenix WinNonlin); conditions: human, plasma, sc, 100 mg, Plasma concentration, geometric mean (CV%), 100 mg SC, day 1 cycle 1, 0.75 h after dosing, n = 4; LC-MS/MS
No end group written: not given here.
result.type: level at 0.75 h (ng/mL)

sequence.text: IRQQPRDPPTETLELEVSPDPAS [ALM201]
observed.result: 1220

====

experiment: Plasma pharmacokinetics of ALM201 in Phase I patients (validated LC-MS/MS, Phoenix WinNonlin); conditions: human, plasma, sc, 80 mg, Plasma concentration, geometric mean (CV%), 80 mg SC, day 18 cycle 2, 2 h after dosing, n = 1; LC-MS/MS
No end group written: not given here.

sequence.text: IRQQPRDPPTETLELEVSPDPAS [ALM201]
level at 2 h (ng/mL): 639

====

assay: Plasma pharmacokinetics of ALM201 in Phase I patients (validated LC-MS/MS, Phoenix WinNonlin); conditions: human, plasma, sc, 300 mg, Cmax, Gmean (CV), 300 mg SC, day 18 cycle 1, n = 3; plasma LC-MS/MS
No end group written: not given here.
result.type: Cmax (ng/mL)

sequence.text: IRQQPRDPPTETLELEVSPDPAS [ALM201]
observed.result: 2880

====

test: Plasma pharmacokinetics of ALM201 in Phase I patients (validated LC-MS/MS, Phoenix WinNonlin); details: human, plasma, sc, 40 mg, Plasma concentration, geometric mean (CV%), 40 mg SC, day 18 cycle 1, 3.5 h after dosing, n = 1; LC-MS/MS
No end group written: not given here.

sequence.text: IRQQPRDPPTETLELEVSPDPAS [ALM201]
level at 3.5 h: 377 ng/mL

====

test: Plasma pharmacokinetics of ALM201 in Phase I patients (validated LC-MS/MS, Phoenix WinNonlin); settings: human, plasma, sc, 160 mg, AUC0-t, Gmean (CV), 160 mg SC, day 18 cycle 2, n = 1; plasma LC-MS/MS
No end group written: not given here.
result.type: AUC(0-t) (ng·h/mL)

sequence.text: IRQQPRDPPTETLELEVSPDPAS [ALM201]
unit.abbreviation: ng·h/mL
observed.result: 5710

====

assay: Plasma pharmacokinetics of ALM201 in Phase I patients (validated LC-MS/MS, Phoenix WinNonlin); conditions: human, plasma, sc, 10 mg, Plasma concentration, geometric mean (CV%), 10 mg SC, day 3 cycle 1, 2 h after dosing, n = 1; LC-MS/MS
No end group written: not given here.

sequence.text: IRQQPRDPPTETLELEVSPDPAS [ALM201]
level at 2 h / µg/mL: 0.242

====

assay: Plasma pharmacokinetics of ALM201 in Phase I patients (validated LC-MS/MS, Phoenix WinNonlin); conditions: human, plasma, sc, 160 mg, Plasma concentration, geometric mean (CV%), 160 mg SC, day 18 cycle 2, 1 h after dosing, n = 1; LC-MS/MS
No end group written: not given here.
result.type: level at 1 h (ng/mL)

sequence.text: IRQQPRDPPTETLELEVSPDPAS [ALM201]
result.type: level at 1 h
observed.result: 1380

====

assay: Plasma pharmacokinetics of ALM201 in Phase I patients (validated LC-MS/MS, Phoenix WinNonlin); details: human, plasma, sc, 40 mg, Tmax, median, 40 mg SC, day 18 cycle 1, n = 1; plasma LC-MS/MS
No end group written: not given here.

sequence.text: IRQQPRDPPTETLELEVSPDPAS [ALM201]
Tmax: 1 h

Just for reference, paper PMC9276671 is where these values come from.
